target: F508delCFTR cell surface expression in CFBE41o-F508delCFTR-HRP cells (Homo sapiens, UniProt P13569, DEL508-508); construct: fused on or other part: Horseradish peroxidase (HRP) reporter inserted in the fourth exofacial (extracellular) loop of CFTR; expression is doxycycline-inducible; test: Cell Surface Expression-Horse Radish Peroxidase (CSE-HRP) Assay; conditions: CFBE41o-F508delCFTR-HRP cells, 18-24 hours at 33° C., 8-point curve, highest concentration 20 μM
Sequence (P13569 with tags, fused parts or gaps DEL508-508 limits assumed): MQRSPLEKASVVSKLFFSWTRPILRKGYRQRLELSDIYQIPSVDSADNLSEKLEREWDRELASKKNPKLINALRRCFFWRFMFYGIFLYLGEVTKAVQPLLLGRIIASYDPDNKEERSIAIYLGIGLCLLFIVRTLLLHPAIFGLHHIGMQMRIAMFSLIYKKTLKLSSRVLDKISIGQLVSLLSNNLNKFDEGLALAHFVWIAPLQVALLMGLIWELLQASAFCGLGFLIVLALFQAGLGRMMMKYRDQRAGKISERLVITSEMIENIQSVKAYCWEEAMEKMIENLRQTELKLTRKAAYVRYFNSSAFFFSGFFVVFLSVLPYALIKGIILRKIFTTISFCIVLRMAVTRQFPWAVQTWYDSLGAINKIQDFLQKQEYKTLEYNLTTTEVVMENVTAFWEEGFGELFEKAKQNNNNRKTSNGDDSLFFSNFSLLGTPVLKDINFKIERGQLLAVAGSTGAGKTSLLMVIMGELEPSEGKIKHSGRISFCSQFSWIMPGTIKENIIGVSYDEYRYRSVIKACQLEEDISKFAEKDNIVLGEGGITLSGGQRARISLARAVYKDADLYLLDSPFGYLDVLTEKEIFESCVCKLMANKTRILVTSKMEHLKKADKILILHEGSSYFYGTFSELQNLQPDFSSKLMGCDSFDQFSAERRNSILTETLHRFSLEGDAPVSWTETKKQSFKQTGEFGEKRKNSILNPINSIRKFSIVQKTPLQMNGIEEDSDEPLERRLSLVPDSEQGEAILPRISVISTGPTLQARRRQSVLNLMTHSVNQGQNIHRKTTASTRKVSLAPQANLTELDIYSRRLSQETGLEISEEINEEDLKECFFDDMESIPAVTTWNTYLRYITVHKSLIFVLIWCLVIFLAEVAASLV
Sequence (P13569 919-1480 limits assumed, stated change not applied): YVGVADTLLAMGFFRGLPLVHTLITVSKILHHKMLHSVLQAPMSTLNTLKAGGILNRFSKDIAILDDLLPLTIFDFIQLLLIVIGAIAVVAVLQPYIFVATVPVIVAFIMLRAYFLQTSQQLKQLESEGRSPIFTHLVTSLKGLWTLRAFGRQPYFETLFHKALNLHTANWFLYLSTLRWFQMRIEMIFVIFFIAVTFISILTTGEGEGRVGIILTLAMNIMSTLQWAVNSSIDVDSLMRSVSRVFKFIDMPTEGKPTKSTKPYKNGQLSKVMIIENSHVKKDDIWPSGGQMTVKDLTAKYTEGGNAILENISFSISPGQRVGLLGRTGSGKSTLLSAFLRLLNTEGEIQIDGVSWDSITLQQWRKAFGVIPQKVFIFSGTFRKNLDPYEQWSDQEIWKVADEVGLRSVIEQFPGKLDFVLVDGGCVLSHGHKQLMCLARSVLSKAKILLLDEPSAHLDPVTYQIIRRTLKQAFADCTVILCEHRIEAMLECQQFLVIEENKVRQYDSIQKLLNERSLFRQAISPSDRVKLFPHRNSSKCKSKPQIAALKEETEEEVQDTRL
Kindly supply the reported EC50 values for the records listed here.
Just the number please, in nM, no unit attached.

COc1ccc2c(c1)O[C@@H](c1ccc(C(=O)NC[C@H]3C[C@H](O)C3)cn1)C[C@H]2NC(=O)[C@@]1(C)COc2cc3c(cc21)OC(F)(F)O3 yielded EC50 of 50

Entry C[C@]1(C(=O)Nc2cccc(NC[C@H](O)CO)n2)COc2cc3c(cc21)OC(F)(F)O3 , EC50 reported as 1530

Measured EC50, COc1ccc2c(c1)O[C@@H](c1ccc(Cl)nn1)C[C@H]2NC(=O)[C@@]1(C)COc2cc3c(cc21)OC(F)(F)O3 : 340

Kindly note the recorded EC50 for CCOC(=O)[C@H]1CC[C@H]([C@@H]2C[C@H](NC(=O)[C@@]3(C)COc4cc5c(cc43)OC(F)(F)O5)c3ccc(OC(F)F)cc3O2)CC1 , which is 1020

EC50 measured on COc1ccc2c(c1)O[C@@H](c1ccc(C(=O)NCC(C)(C)O)cn1)C[C@H]2NC(=O)[C@@]1(C)COc2cc3c(cc21)OC(F)(F)O3 = 60

The recorded EC50 for entry COc1ccc2c(c1)O[C@@H](c1ccc(C(=O)N3CC(O)(CCO)C3)cn1)C[C@H]2NC(=O)[C@@]1(C)COc2cc3c(cc21)OC(F)(F)O3 equals 40

Value of measured EC50 for the entry CNC(=O)c1cccc(-c2nc(NC(=O)C3(C)COc4cc5c(cc43)OC(F)(F)O5)ccc2C)c1 (stereo not shown) : 720

COc1ccc2c(c1)O[C@@H](c1ccc(C(=O)N3CCCOCC3)cn1)C[C@H]2NC(=O)[C@@]1(C)COc2cc3c(cc21)OC(F)(F)O3 has a reported EC50 of 30

Data point: CC1(C)OC[C@@H](Cn2nc(-c3ccccc3)cc(NC(=O)C3(C)COc4cc5c(cc43)OC(F)(F)O5)c2=O)O1 (stereo partly shown) ; EC50 = 1180

Summary for this molecule, CC1(C(=O)Nc2cccc(N3CCC(C(=O)O)CC3)n2)COc2cc3c(cc21)OC(F)(F)O3 (stereo not shown) : EC50 is 1230

Briefly, EC50 measured for Cc1ccc(NC(=O)[C@@]2(C)CCc3c2ccc2c3OCO2)cc1-c1cccc(C(=O)O)c1 (single isomer, unassigned) : 4560

Looking up COc1ccc2c(c1)OC(c1ccc(OC[C@@H](O)CO)nn1)C[C@H]2NC(=O)[C@@]1(C)COc2cc3c(cc21)OC(F)(F)O3 (stereo partly shown) , I see its EC50 listed as 90
